Assay: Metabolic stability in simulated intestinal fluid (SIF), pH 6.8, with or without pancreatin
Format: in vitro ADME
Conditions: simulated gi fluid, pH 6.8, +Pancreatin (1%), 5 μM, 37° C.
Test readout: half-life (min)
Response body: numeric value in min, unit text excluded.

Ask | Quick check: half-life of CCCCCC(=O)N1C(Cc2ccc(OP(=O)([O-])[O-])cc2)C(=O)N(C(C(=O)NCCCCCC(N)=O)C(C)CC)C12CCN(C)CC2.[Na+].[Na+] (stereo not shown) ?
Reply | 142

----------
Assay: Metabolic stability in simulated gastric fluid (SGF), pH 1.2, with or without pepsin
Type: in vitro ADME
Conditions: +Pepsin (0.32%), 5 μM, 37° C., 60 min
Where a SMILES comes first, the peptide text is derived from it. [ ]: non-standard residue; d: D form. The star is where a group is joined. ξ: configuration not given here. pY = N[CH](Cc1ccc(OP(=O)(O)O)cc1)C(=O)O; ξpY = NC(Cc1ccc(OP(=O)(O)O)cc1)C(=O)O; Ile(3ξ) = CCC(C)[C@H](N)C(=O)O; Hexanoyl = CCCCCC(=O)*; Ahx = NCCCCCC(=O)O
Test readout: SGF Stability (pH 1.2) 60 min (%)
Kindly answer with a numeric value in %, unit omitted.

Ask | Need SGF Stability (pH 1.2) 60 min, item CCCCCC(=O)NC(Cc1ccc(OC(=O)NCCN(C)C)cc1)C(=O)NC(C(=O)NCCCCCC(N)=O)C(C)CC (stereo not shown)
Reply | 87

Ask | Requested field: SGF Stability (pH 1.2) 60 min. Item: CCCCCC(=O)N1C(Cc2ccc(OP(=O)([O-])[O-])cc2)C(=O)N(C(C(=O)NCCCCCC(N)=O)C(C)CC)C12CCN(C)CC2.[Na+].[Na+] (stereo not shown)
Reply | 94

Ask | # lookup: SGF Stability (pH 1.2) 60 min of CCCCCC(=O)NC(Cc1ccc(OP(=O)(OCCN(C)C)OCCN(C)C)cc1)C(=O)NC(C(=O)NCCCCCC(N)=O)C(C)CC (stereo not shown)
Reply | 52

Ask | Returns the measured SGF Stability (pH 1.2) 60 min for the input compound. Input: CCCCCC(=O)NC(Cc1ccc(OP(=O)([O-])O)cc1)C(=O)NC(C(=O)NCCCCCC(N)=O)C(C)CC.[Na+] (stereo not shown) [Compound A30] (Hexanoyl-[pY]-Ile-[Ahx]-NH2; configuration not given here)
Reply | 95

Ask | Requested field: SGF Stability (pH 1.2) 60 min. Item: CCCCCC(=O)N[C@@H](Cc1ccc(O)cc1)C(=O)N[C@H](C(=O)NCCCCCC(N)=O)[C@@H](C)CC [Base Structure, reference compound] (Hexanoyl-Tyr-Ile-[Ahx]-NH2)
Reply | 13

Ask | Any idea what its SGF Stability (pH 1.2) 60 min is? The compound is CCCCCC(=O)NC(Cc1ccc(OP(=O)(O)O)cc1)C(=O)N[C@H](C(=O)NCCCCCC(N)=O)C(C)CC.N.N (stereo partly shown) [Compound A29] (Hexanoyl-[ξpY]-[Ile(3ξ)]-[Ahx]-NH2)
Reply | 86

Ask | Entry CCCCCC(=O)NC(Cc1ccc(OC(=O)N2CCN(C)CC2)cc1)C(=O)NC(C(=O)NCCCCCC(N)=O)C(C)CC (stereo not shown) has what SGF Stability (pH 1.2) 60 min?
Reply | 57

----------
Test: Plasma stability study, human plasma
Assay type: in vitro ADME
Conditions: human, plasma
Where a SMILES comes first, the peptide text is derived from it. [ ]: non-standard residue; d: D form. The star is where a group is joined. Hexanoyl = CCCCCC(=O)*; Ahx = NCCCCCC(=O)O
Below, each entry is listed alongside its reported Plasma Stability Half-Life.

Below, each entry is followed by its recorded Plasma Stability Half-Life result.
Compound	Assay result
CCCCCC(=O)NC(Cc1ccc(OC(=O)CN2CCN(C)CC2)cc1)C(=O)NC(C(=O)NCCCCCC(N)=O)C(C)CC (centres unmarked)	87.9 min
CCCCCC(=O)NC(Cc1ccc(OC(=O)CN2CCOCC2)cc1)C(=O)NC(C(=O)NCCCCCC(N)=O)C(C)CC (centres unmarked)	31.3 min
CCCCCC(=O)NC(Cc1ccc(OC(=O)CN2CCCC2)cc1)C(=O)NC(C(=O)NCCCCCC(N)=O)C(C)CC (centres unmarked)	7.3 min

Ask | If you can, please state the reported Plasma Stability Half-Life value of CCCCCC(=O)NC(Cc1ccc(OC(=O)CN(C)C)cc1)C(=O)NC(C(=O)NCCCCCC(N)=O)C(C)CC (centres unmarked) .
Reply | 10.1 min

Ask | Reported Plasma Stability Half-Life for CCCCCC(=O)NC(Cc1ccc(OC(=O)C(N)C(C)C)cc1)C(=O)NC(C(=O)NCCCCCC(N)=O)C(C)CC (centres unmarked) [Compound A27] (Hexanoyl-Tyr(Val)-Ile-[Ahx]-NH2; configuration not given here) : what is it?
Reply | 13.2 min

----------
# Tmax listing for each entry below
Type: in vivo, rat
Conditions: rat; dosed as prodrug, 10 mg/kg equivalent of Base Structure; analyte Prodrug; Average
Please state the figure in h; there is no need to write the unit.

Ask | Looking for the measured Tmax of CCCCCC(=O)NC(Cc1ccc(OP(=O)(OCCN(C)C)OCCN(C)C)cc1)C(=O)NC(C(=O)NCCCCCC(N)=O)C(C)CC (stereo not shown) [Compound A18] , can you help?
Reply | 1.5

Ask | Quick check: Tmax of CCCCCC(=O)NC(Cc1ccc(OC(=O)NCCN(C)C)cc1)C(=O)NC(C(=O)NCCCCCC(N)=O)C(C)CC (stereo not shown) [Compound A21] ?
Reply | 0.8125

Ask | Which value of Tmax has been reported for CCCCCC(=O)NC(Cc1ccc(OC(=O)N2CCN(C)CC2)cc1)C(=O)NC(C(=O)NCCCCCC(N)=O)C(C)CC (stereo not shown) [Compound A20] in the records?
Reply | 0

Ask | Bench note: what Tmax did CCCCCC(=O)N1C(Cc2ccc(OP(=O)([O-])[O-])cc2)C(=O)N(C(C(=O)NCCCCCC(N)=O)C(C)CC)C12CCN(C)CC2.[Na+].[Na+] (stereo not shown) [Compound 2] show?
Reply | 0

----------
Assay: Metabolic stability in simulated gastric fluid (SGF), pH 1.2, with or without pepsin
Format: in vitro ADME
Conditions: +Pepsin (0.32%), 5 μM, 37° C., 240 min
Where a SMILES comes first, the peptide text is derived from it. [ ]: non-standard residue; d: D form. The star is where a group is joined. pY = N[CH](Cc1ccc(OP(=O)(O)O)cc1)C(=O)O; Hexanoyl = CCCCCC(=O)*; Ahx = NCCCCCC(=O)O
Think of 50% as a floor: if SGF Stability (pH 1.2) 240 min stands on it or above, it is Fulfilled; beneath it, Not fulfilled.

Some solved entries appear below for comparison.
Compound	Category label
CCCCCC(=O)NC(Cc1ccc(OP(=O)([O-])O)cc1)C(=O)NC(C(=O)NCCCCCC(N)=O)C(C)CC.[Na+] (stereo not shown) [Compound A30] (Hexanoyl-[pY]-Ile-[Ahx]-NH2; configuration not given here)	Fulfilled
CCCCCC(=O)N[C@@H](Cc1ccc(O)cc1)C(=O)N[C@H](C(=O)NCCCCCC(N)=O)[C@@H](C)CC [Base Structure, reference compound] (Hexanoyl-Tyr-Ile-[Ahx]-NH2)	Not fulfilled
CCCCCC(=O)NC(Cc1ccc(OC(=O)N2CCN(C)CC2)cc1)C(=O)NC(C(=O)NCCCCCC(N)=O)C(C)CC (stereo not shown)	Not fulfilled
CCCCCC(=O)NC(Cc1ccc(OP(=O)(OCCN(C)C)OCCN(C)C)cc1)C(=O)NC(C(=O)NCCCCCC(N)=O)C(C)CC (stereo not shown)	Not fulfilled

Ask | Reported SGF Stability (pH 1.2) 240 min reaches at least 50% for CCCCCC(=O)NC(Cc1ccc(OC(=O)NCCN(C)C)cc1)C(=O)NC(C(=O)NCCCCCC(N)=O)C(C)CC (stereo not shown) ?
Reply | Fulfilled

Ask | Check this compound for SGF Stability (pH 1.2) 240 min at or above 50%: CCCCCC(=O)N1C(Cc2ccc(OP(=O)([O-])[O-])cc2)C(=O)N(C(C(=O)NCCCCCC(N)=O)C(C)CC)C12CCN(C)CC2.[Na+].[Na+] (stereo not shown)
Reply | Fulfilled

----------
Test: Metabolic stability in simulated gastric fluid (SGF), pH 1.2, with or without pepsin
Format: in vitro ADME
Settings: −Pepsin, 5 μM, 37° C., 240 min
Where a SMILES comes first, the peptide text is derived from it. [ ]: non-standard residue; d: D form. The star is where a group is joined. ξ: configuration not given here. pY = N[CH](Cc1ccc(OP(=O)(O)O)cc1)C(=O)O; ξpY = NC(Cc1ccc(OP(=O)(O)O)cc1)C(=O)O; Ile(3ξ) = CCC(C)[C@H](N)C(=O)O; Hexanoyl = CCCCCC(=O)*; Ahx = NCCCCCC(=O)O
Record criterion met whenever SGF Stability (pH 1.2) 240 min is at 70% or higher; record criterion not met when lower.

Check out these entries, answers already filled in.
Compound	Category label
CCCCCC(=O)NC(Cc1ccc(OP(=O)(O)O)cc1)C(=O)N[C@H](C(=O)NCCCCCC(N)=O)C(C)CC.N.N (stereo partly drawn) [Compound A29] (Hexanoyl-[ξpY]-[Ile(3ξ)]-[Ahx]-NH2)	criterion met
CCCCCC(=O)N1C(Cc2ccc(OP(=O)([O-])[O-])cc2)C(=O)N(C(C(=O)NCCCCCC(N)=O)C(C)CC)C12CCN(C)CC2.[Na+].[Na+] (stereo not drawn) [Compound 2]	criterion not met
CCCCCC(=O)NC(Cc1ccc(OP(=O)(OCCN(C)C)OCCN(C)C)cc1)C(=O)NC(C(=O)NCCCCCC(N)=O)C(C)CC (stereo not drawn) [Compound A18]	criterion not met
CCCCCC(=O)N[C@@H](Cc1ccc(O)cc1)C(=O)N[C@H](C(=O)NCCCCCC(N)=O)[C@@H](C)CC [Base Structure, reference compound] (Hexanoyl-Tyr-Ile-[Ahx]-NH2)	criterion met
CCCCCC(=O)NC(Cc1ccc(OC(=O)N2CCN(C)CC2)cc1)C(=O)NC(C(=O)NCCCCCC(N)=O)C(C)CC (stereo not drawn) [Compound A20]	criterion not met

Ask | Determine whether this compound has SGF Stability (pH 1.2) 240 min no lower than 70%: CCCCCC(=O)NC(Cc1ccc(OP(=O)([O-])O)cc1)C(=O)NC(C(=O)NCCCCCC(N)=O)C(C)CC.[Na+] (stereo not drawn) [Compound A30] (Hexanoyl-[pY]-Ile-[Ahx]-NH2; configuration not given here)
Reply | criterion met
